Target: Voltage-gated potassium channel subunit beta-2 (Rattus norvegicus)
Test: KvBeta positive modulators, primary screen, biochemical, NADPH fluorescence (AID 623);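 note: fluorescence intensity change per second fitted from 20 to 320 s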
Conditions: Recombinant KvBeta, NADPH fluorescence decrease slope, 10 min; at 10 µM; stronger effect = lower value

>  <molecule>
COCC(=O)N(c1ccc(C(C)C)cc1)C1C=CS(=O)(=O)C1 (stereo unspecified)

>  <NADPH fluorescence slope>
-7.6e-06

$$$$
>  <molecule>
Cc1ccc(SCC(=O)NCCN2C(=O)CSC2=O)c(C)c1

>  <NADPH fluorescence slope>
-2.5e-05

$$$$
>  <molecule>
CC12CN3CC(C)(CN(C1)C3c1ccc(Br)cc1O)C2 (stereo unspecified)

>  <NADPH fluorescence slope>
-8.8e-05

$$$$
>  <molecule>
CC1(C)Cc2c(sc3ncn4nc(-c5ccco5)nc4c23)CO1

>  <NADPH fluorescence slope>
-4.1e-05

$$$$
>  <molecule>
COCCCNc1nc2c(c(=O)[nH]c(=O)n2C)n1CC(O)COc1ccccc1 (stereo unspecified)

>  <NADPH fluorescence slope>
-7.9e-05

$$$$
>  <molecule>
Cc1ccc(N2C(=O)CC3(CC4C=CC3C4)C2=O)cc1 (stereo unspecified)

>  <NADPH fluorescence slope>
-3.6e-05

$$$$

All values here come from PubChem BioAssay.
